Measured Log k IAM by item
Assay: HPLC lipophilicity on IAM (immobilized artificial membrane, phosphatidylcholine) stationary phase
Type: physicochemical
Settings: Table S2; ACN 0.40 v/v in mobile phase, pH 7.4

Previously resolved entries follow.
>  <smiles_string>
O=C(COc1ccccc1)NNC(=S)Nc1ccc(I)cc1

>  <Log k IAM>
-0.358

$$$$
>  <smiles_string>
O=C(COc1ccccc1)NNC(=S)Nc1ccc(Cl)cc1Cl

>  <Log k IAM>
-0.430

$$$$
>  <smiles_string>
O=C(COc1ccccc1)NNC(=S)Nc1ccc(Cl)c(Cl)c1

>  <Log k IAM>
-0.346

$$$$
>  <smiles_string>
O=C(COc1ccccc1)NNC(=S)Nc1cc(Cl)ccc1Cl

>  <Log k IAM>
-0.366

$$$$
>  <smiles_string>
O=C(COc1ccccc1)NNC(=S)Nc1cccc(I)c1

>  <Log k IAM>
-0.404

$$$$

Okay, now this compound:
### Prompt Please indicate Log k IAM recorded for "O=C(COc1ccccc1)NNC(=S)Nc1ccccc1"
### Response -0.556

---

Biological target: human serum albumin (HSA) (Homo sapiens, UniProt P02768)
Construct: purchased Chiralpac
Sequence (P02768 25-609): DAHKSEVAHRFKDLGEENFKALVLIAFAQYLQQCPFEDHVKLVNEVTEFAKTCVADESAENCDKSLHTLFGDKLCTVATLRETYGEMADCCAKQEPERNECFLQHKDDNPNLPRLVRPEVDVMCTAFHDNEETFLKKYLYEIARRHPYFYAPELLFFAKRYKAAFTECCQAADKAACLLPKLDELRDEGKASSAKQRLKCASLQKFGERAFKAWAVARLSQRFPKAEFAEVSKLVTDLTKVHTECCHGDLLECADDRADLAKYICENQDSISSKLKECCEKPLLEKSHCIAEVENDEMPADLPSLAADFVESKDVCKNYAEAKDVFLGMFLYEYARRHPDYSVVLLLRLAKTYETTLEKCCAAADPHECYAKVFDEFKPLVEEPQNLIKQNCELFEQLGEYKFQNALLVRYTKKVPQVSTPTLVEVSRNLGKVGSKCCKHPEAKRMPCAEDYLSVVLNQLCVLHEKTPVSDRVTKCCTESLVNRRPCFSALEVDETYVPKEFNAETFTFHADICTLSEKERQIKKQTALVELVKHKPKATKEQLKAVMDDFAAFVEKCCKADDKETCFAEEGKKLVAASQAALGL
Test: HPLC on immobilized HSA column, affinity and % plasma–protein binding
Type: in vitro ADME
Details: human, pH 7.4; % plasma–protein binding converted from log K HSA (Equation 10); read-out: %PPB HSA (converted)
Readings of fraction unbound for the listed compounds

Recorded fraction unbound, per entry:
>  <smiles_string>
O=C(COc1ccccc1)NNC(=S)Nc1ccc(Cl)cc1Cl

>  <measured_result>
0.01

$$$$
>  <smiles_string>
O=C(COc1ccccc1)NNC(=S)Nc1ccccc1

>  <measured_result>
0.065

$$$$

### Prompt Give the reported value of fraction unbound for this record: "O=C(COc1ccccc1)NNC(=S)Nc1ccccc1Cl"
### Response 0.049

---

Test: HPLC lipophilicity on cholesterol (Chol) stationary phase
Type: physicochemical
Settings: Table S3; MeOH 0.50 v/v in mobile phase, pH 7.4
So basically, if Log k Chol comes in under 0.6 it's Condition met, and if it's 0.6 or more it's Condition not met.

Sample answers from the record:
>  <smiles_string>
O=C(COc1ccccc1)NNC(=S)Nc1cccc(Br)c1

>  <answer_label>
Condition not met

$$$$
>  <smiles_string>
O=C(COc1ccccc1)NNC(=S)Nc1ccc([N+](=O)[O-])cc1

>  <answer_label>
Condition met

$$$$

### Prompt I wonder whether "O=C(COc1ccccc1)NNC(=S)Nc1cccc(F)c1" has Log k Chol below 0.6. Can you tell?
### Response Condition met

### Prompt # TODO verify Log k Chol < 0.6 strictly for this molecule: "O=C(COc1ccccc1)NNC(=S)Nc1cccc2ccccc12"
### Response Condition met

---

Assay: HPLC lipophilicity on IAM (immobilized artificial membrane, phosphatidylcholine) stationary phase
Format: physicochemical
Conditions: Table S2; ACN 0.05 v/v in mobile phase, pH 7.4
Hi! Just check whether Log k IAM is below 1. Below gives satisfied, equal or above gives not satisfied.

# example entries with known answers
>  <smiles_string>
O=C(COc1ccccc1)NNC(=S)Nc1cccc(F)c1

>  <answer_label>
not satisfied

$$$$
>  <smiles_string>
O=C(COc1ccccc1)NNC(=S)Nc1ccc([N+](=O)[O-])cc1

>  <answer_label>
not satisfied

$$$$

### Prompt Find out if reported Log k IAM for "O=C(COc1ccccc1)NNC(=S)Nc1ccc(F)cc1" is less than 1
### Response not satisfied

### Prompt Log k IAM strictly < 1 for this molecule? "O=C(COc1ccccc1)NNC(=S)Nc1ccccc1F"
### Response satisfied

---

Assay: HPLC lipophilicity on cholesterol (Chol) stationary phase
Type: physicochemical
Conditions: Table S3; MeOH 0.80 v/v in mobile phase, pH 7.4
Each entry below carries its recorded Log k Chol.
Enter the number alone.

// solved cases for Log k Chol follow
>  <smiles_string>
O=C(COc1ccccc1)NNC(=S)Nc1cccc(Br)c1

>  <Log k Chol>
-0.987

$$$$
>  <smiles_string>
O=C(COc1ccccc1)NNC(=S)Nc1cccc(F)c1

>  <Log k Chol>
-1.065

$$$$
>  <smiles_string>
O=C(COc1ccccc1)NNC(=S)Nc1cccc(Cl)c1

>  <Log k Chol>
-0.975

$$$$
>  <smiles_string>
O=C(COc1ccccc1)NNC(=S)Nc1ccc(I)cc1

>  <Log k Chol>
-0.783

$$$$

### Prompt Fill in Log k Chol for record "O=C(COc1ccccc1)NNC(=S)Nc1cccc2ccccc12"
### Response -1.016

### Prompt # return recorded Log k Chol for input "O=C(COc1ccccc1)NNC(=S)Nc1ccccc1F"
### Response -1.104

### Prompt Note down Log k Chol recorded for "O=C(COc1ccccc1)NNC(=S)Nc1ccccc1Cl"
### Response -1.020

---

Listed here are compounds together with their documented Log k IAM.
Test: HPLC lipophilicity on IAM (immobilized artificial membrane, phosphatidylcholine) stationary phase
Assay type: physicochemical
Settings: Table S2; ACN 0.10 v/v in mobile phase, pH 7.4
A bare number is all that is needed in reply.

>  <compound>
O=C(COc1ccccc1)NNC(=S)Nc1ccccc1 [Compound 1]

>  <Log k IAM>
0.548

$$$$
>  <compound>
O=C(COc1ccccc1)NNC(=S)Nc1ccccc1I [Compound 4]

>  <Log k IAM>
1.158

$$$$

### Prompt // Input: O=C(COc1ccccc1)NNC(=S)Nc1ccccc1Cl [Compound 3] . Output its Log k IAM only.
### Response 1.022

---

Assay: HPLC lipophilicity on IAM (immobilized artificial membrane, phosphatidylcholine) stationary phase
Assay type: physicochemical
Conditions: Table S2; ACN 0.25 v/v in mobile phase, pH 7.4
Catalogue of Log k IAM values
# output: bare number, no unit

>  <compound>
O=C(COc1ccccc1)NNC(=S)Nc1ccccc1F [Compound 2]

>  <Log k IAM>
-0.010

$$$$
>  <compound>
O=C(COc1ccccc1)NNC(=S)Nc1ccc(I)cc1 [Compound 12]

>  <Log k IAM>
0.655

$$$$
>  <compound>
O=C(COc1ccccc1)NNC(=S)Nc1ccc(Br)cc1 [Compound 11]

>  <Log k IAM>
0.453

$$$$
>  <compound>
CSc1ccc(NC(=S)NNC(=O)COc2ccccc2)cc1 [Compound 17]

>  <Log k IAM>
0.282

$$$$
>  <compound>
O=C(COc1ccccc1)NNC(=S)Nc1ccccc1 [Compound 1]

>  <Log k IAM>
-0.142

$$$$
>  <compound>
O=C(COc1ccccc1)NNC(=S)Nc1cccc(Cl)c1 [Compound 6]

>  <Log k IAM>
0.333

$$$$
>  <compound>
O=C(COc1ccccc1)NNC(=S)Nc1cccc(Br)c1 [Compound 7]

>  <Log k IAM>
0.413

$$$$
>  <compound>
O=C(COc1ccccc1)NNC(=S)Nc1ccc(F)cc1 [Compound 9]

>  <Log k IAM>
-0.150

$$$$

### Prompt Give a short answer stating reported Log k IAM for O=C(COc1ccccc1)NNC(=S)Nc1ccccc1Cl [Compound 3] .
### Response 0.291

### Prompt State its Log k IAM: O=C(COc1ccccc1)NNC(=S)Nc1cccc2ccccc12 [Compound 18]
### Response 0.278

### Prompt State its Log k IAM for this compound: O=C(COc1ccccc1)NNC(=S)Nc1ccc(Cl)cc1Cl [Compound 13]
### Response 0.557

### Prompt Please report Log k IAM for the following compound: O=C(COc1ccccc1)NNC(=S)Nc1cc(Cl)ccc1Cl [Compound 14]
### Response 0.710

### Prompt For the compound O=C(COc1ccccc1)NNC(=S)Nc1ccc(Cl)cc1 [Compound 10] , give its measured Log k IAM value.
### Response 0.368

### Prompt Please supply the value of reported Log k IAM for the item O=C(COc1ccccc1)NNC(=S)Nc1ccc(Cl)c(Cl)c1 [Compound 15]
### Response 0.667

---

Assay: HPLC lipophilicity on cholesterol (Chol) stationary phase
Assay type: physicochemical
Conditions: Table S3; MeOH 0.30 v/v in mobile phase, pH 7.4
This section presents compounds with their documented Log k Chol values.
Answer as a number with no unit attached.

Answered examples (6):
>  <compound>
O=C(COc1ccccc1)NNC(=S)Nc1ccc([N+](=O)[O-])cc1 [Compound 16]

>  <Log k Chol>
1.264

$$$$
>  <compound>
O=C(COc1ccccc1)NNC(=S)Nc1ccccc1I [Compound 4]

>  <Log k Chol>
1.105

$$$$
>  <compound>
O=C(COc1ccccc1)NNC(=S)Nc1cccc2ccccc12 [Compound 18]

>  <Log k Chol>
1.494

$$$$
>  <compound>
O=C(COc1ccccc1)NNC(=S)Nc1ccc(F)cc1 [Compound 9]

>  <Log k Chol>
1.111

$$$$
>  <compound>
O=C(COc1ccccc1)NNC(=S)Nc1ccccc1 [Compound 1]

>  <Log k Chol>
0.979

$$$$
>  <compound>
O=C(COc1ccccc1)NNC(=S)Nc1ccccc1Cl [Compound 3]

>  <Log k Chol>
1.024

$$$$

### Prompt Find the measured Log k Chol of O=C(COc1ccccc1)NNC(=S)Nc1ccccc1F [Compound 2] and report it.
### Response 0.744

### Prompt Complete the entry with Log k Chol for O=C(COc1ccccc1)NNC(=S)Nc1ccc(Cl)cc1 [Compound 10]
### Response 1.475
